test: Concentration of (S)-methoprene on dog hair following oral administration (HPLC); format: in vivo, dogs; conditions: dog, hair, po, 50 mg/kg, Dog #535; oral 50 mg/kg one time on Day 0; day 17
Readout Name: concentration at 17 day
Respond with the figure and its unit, in that order.

Prompt: Find the recorded concentration at 17 day belonging to COC(C)(C)CCC[C@H](C)C/C=C/C(C)=C/C(=O)OC(C)C [(S)-Methoprene] and report it.
Response: 1090 ng/g

---

assay: Concentration of (S)-methoprene on dog hair following oral administration (HPLC); type: in vivo, dogs; conditions: dog, hair, po, 50 mg/kg, Dog #528; oral 50 mg/kg one time on Day 0; day 21
Readout Name: concentration at 21 day
Respond with the figure and its unit, in that order.

Prompt: Find the recorded concentration at 21 day belonging to COC(C)(C)CCC[C@H](C)C/C=C/C(C)=C/C(=O)OC(C)C [(S)-Methoprene] and report it.
Response: 31.2 ng/g
